Biological target: HKU1 isolate N1 (genotype A) RBD, wildtype, avi-tagged and biotinylated (UniProt Q5MQD0)
Sequence (Q5MQD0 320-614): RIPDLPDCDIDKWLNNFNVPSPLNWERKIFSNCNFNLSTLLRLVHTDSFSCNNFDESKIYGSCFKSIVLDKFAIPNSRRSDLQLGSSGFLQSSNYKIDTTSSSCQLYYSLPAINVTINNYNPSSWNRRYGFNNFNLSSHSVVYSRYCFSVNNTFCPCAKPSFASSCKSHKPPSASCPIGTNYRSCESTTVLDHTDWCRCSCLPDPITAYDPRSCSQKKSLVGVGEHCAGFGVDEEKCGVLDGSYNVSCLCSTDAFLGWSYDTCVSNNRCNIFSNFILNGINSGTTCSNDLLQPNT
Assay: BLI
Conditions: read off a plot
test.readout: percent of parent (% WT)
One number for each entry, in % WT.

human TMPRSS2 ectodomain, active (S441), with the C379-T447C disulfide bond (from UniProt O15393) Y469N = 5.7
human TMPRSS2 ectodomain, active (S441), with the C379-T447C disulfide bond (from UniProt O15393) S463F = 2.3
human TMPRSS2 ectodomain, active (S441), with the C379-T447C disulfide bond (from UniProt O15393) A468P = 57
human TMPRSS2 ectodomain, active (S441), with the C379-T447C disulfide bond (from UniProt O15393) S441A = 95
human TMPRSS2 ectodomain, active (S441), with the C379-T447C disulfide bond (from UniProt O15393) S412N = 77

Lab note: each substance below needs its percent of parent filled in.
1. human TMPRSS2 ectodomain, active (S441), with the C379-T447C disulfide bond (from UniProt O15393) R409K
2. human TMPRSS2 ectodomain, active (S441), with the C379-T447C disulfide bond (from UniProt O15393) Y414L
3. human TMPRSS2 ectodomain, active (S441), with the C379-T447C disulfide bond (from UniProt O15393) S463Y
4. human TMPRSS2 ectodomain, active (S441), with the C379-T447C disulfide bond (from UniProt O15393) R470K
5. human TMPRSS2 ectodomain, active (S441), with the C379-T447C disulfide bond (from UniProt O15393) Y414S
6. human TMPRSS2 ectodomain, active (S441), with the C379-T447C disulfide bond (from UniProt O15393) L419A
7. human TMPRSS2 ectodomain, active (S441), with the C379-T447C disulfide bond (from UniProt O15393) R409T

1. 36
2. 2.2
3. 2.3
4. 2.1
5. 14
6. 2.7
7. 58

Lab note: each substance below needs its percent of parent filled in.
1. human TMPRSS2 ectodomain, active (S441), with the C379-T447C disulfide bond (from UniProt O15393) V415I
2. human TMPRSS2 ectodomain, active (S441), with the C379-T447C disulfide bond (from UniProt O15393) L419M
3. human TMPRSS2 ectodomain, active (S441), with the C379-T447C disulfide bond (from UniProt O15393) S463T
4. human TMPRSS2 ectodomain, active (S441), with the C379-T447C disulfide bond (from UniProt O15393) R413K
5. human TMPRSS2 ectodomain, active (S441), with the C379-T447C disulfide bond (from UniProt O15393) D417N
6. human TMPRSS2 ectodomain, active (S441), with the C379-T447C disulfide bond (from UniProt O15393) T341S
7. human TMPRSS2 ectodomain, active (S441), with the C379-T447C disulfide bond (from UniProt O15393) K340D

1: 47; 2: 30; 3: 2.7; 4: 52; 5: 7.5; 6: 61; 7: 38

Output measured percent of parent for this item: human TMPRSS2 ectodomain, active (S441), with the C379-T447C disulfide bond (from UniProt O15393) R413V
64
